Reference source: PubChem BioAssay (NCI)

- Test system: MDA-MB-231 breast
- testProtocol: NCI tumour cell line growth inhibition, 48 h
reportedProperty: GI50

Query :: So what does the record say about GI50 for CC(C)=CCc1cc(O)cc2c1OC(C=C(C)C)C1=C2C(=O)C2=C(C1=O)S(=O)(=O)CCN2 (centres undefined) ?
Result :: 2.99 µM

Query :: So what does the record say about GI50 for COc1ccc(C(O)(CCC(C)C)C(CN2CCOCC2)c2ccc(Cl)cc2)cc1 (centres undefined) ?
Result :: 12.1 µM

Query :: So what does the record say about GI50 for `COc1ccc(-c2nnc(N3CCN(C(=O)CN4CCN(c5ccccc5)CC4)CC3)nc2-c2ccc(OC)cc2)cc1` ?
Result :: 13.4 µM

Query :: So what does the record say about GI50 for `CCOC(=O)c1c(-c2ccc(OC)cc2)c(C#N)c2c(C#N)c(N)nn2c1N` ?
Result :: 3.63 µM

Query :: So what does the record say about GI50 for `COC(=O)c1ccc2c(c1)/C(=C\c1cc(Br)c(O)c(Br)c1)C(=O)N2` ?
Result :: 6.83 µM

Query :: So what does the record say about GI50 for `CN(C)C(=S)Sc1ccc([N+](=O)[O-])cc1[N+](=O)[O-]` ?
Result :: 3.04 µM

Query :: So what does the record say about GI50 for `COc1ccc(-c2cc(/C=C/C(=O)c3ccc(OC)c(OC)c3)[nH]n2)cc1` ?
Result :: 2 µM

Query :: So what does the record say about GI50 for `C[C@H](Nc1cc(Cl)nc2c1cnn2[C@@H]1O[C@H](COP(=O)(O)CP(=O)(O)O)[C@@H](O)[C@H]1O)c1ccccc1F` ?
Result :: > 100 µM

Query :: So what does the record say about GI50 for `O=C1CCC/C=C\C[C@H]2C=CC(=O)/C2=C/C[C@H](C/C=C\CC(F)(F)F)O1` ?
Result :: 0.722 µM

----------
- Test system: LOX IMVI melanoma
- testProtocol: NCI tumour cell line growth inhibition, 48 h
Known GI50 of a selection of molecules

Sample answers from the record:
Query :: So what does the record say about GI50 for COc1ccc(C(O)(CCC(C)C)C(CN2CCOCC2)c2ccc(Cl)cc2)cc1 (stereo unspecified) ?
Result :: 14.5 µM

Query :: So what does the record say about GI50 for `COc1ccc(-c2nnc(N3CCN(C(=O)CN4CCN(c5ccccc5)CC4)CC3)nc2-c2ccc(OC)cc2)cc1` ?
Result :: 5.78 µM

Query :: So what does the record say about GI50 for CC1(Br)Cc2ccccc2C1=O (stereo unspecified) ?
Result :: 0.533 µM

Query :: So what does the record say about GI50 for `Clc1nc(Cl)nc(Nc2cccc3ccccc23)n1` ?
Result :: 33.5 µM

Next:
Query :: So what does the record say about GI50 for `COC(=O)c1ccc(-c2c(C#N)[n+](=O)c3cc(Cl)c(Cl)cc3n2[O-])cc1` ?
Result :: 2.38 µM

Query :: So what does the record say about GI50 for Cc1ccc2c(C3C(C#N)=C(N)Oc4cc5ccccc5cc43)cc(=O)oc2c1 (stereo unspecified) ?
Result :: 3.17 µM

----------
- System: 786-0 renal
- testProtocol: NCI tumour cell line growth inhibition, 48 h; in the data active = GI50 below about 0.43 µM; inactive = the rest
Log the outcome using a class from YES (active), NO (inactive)

As a guide, the following entries are already answered.
Query :: Name the outcome recorded for `O=C1c2cccc3cccc(c23)C(=O)N1CCCCCN1CCN(CCCCCOc2ccc(-c3nc4ccc(N5CCOCC5)cc4[nH]3)cc2)CC1` in the assay.
Result :: NO

Query :: Name the outcome recorded for `COc1ccc(-c2cc(/C=C/C(=O)c3ccc(OC)c(OC)c3)[nH]n2)cc1` in the assay.
Result :: NO

Query :: Name the outcome recorded for `Cn1c(Nc2ccc(C(F)(F)F)cc2)nc2cc(Oc3ccnc(-c4ncc(C(F)(F)F)[nH]4)c3)ccc21` in the assay.
Result :: NO

Query :: Name the outcome recorded for `O=[N+]([O-])c1ccc(CI)cc1` in the assay.
Result :: NO

Query :: Name the outcome recorded for `COc1cc(/C=C/C(=O)c2cccc(-n3cc(-c4ccc(Cl)cc4)[nH]c3=O)c2)ccc1O` in the assay.
Result :: NO

Query :: Name the outcome recorded for Nc1ccn(C2OC(CO)C(O)C2O)c(=O)n1 (stereo not given) in the assay.
Result :: YES

Next:
Query :: Name the outcome recorded for COc1cccc2c1C(=O)c1c(O)c3c(c(O)c1C2=O)C[C@@](O)(/C(C)=N/NC(=O)c1ccc(Cl)cc1)C[C@@H]3OC1CC(N)C(O)C(C)O1 (stereo not given in full) in the assay.
Result :: YES

Query :: Name the outcome recorded for `CCCCCCCN=C(N)c1ccc(N2CCN(c3ccc(C(N)=NCCCCCCC)cc3)CC2)cc1` in the assay.
Result :: NO

Query :: Name the outcome recorded for `Nc1c(C(=O)c2ccccc2)cnn1-c1ccc(F)cc1` in the assay.
Result :: NO

Query :: Name the outcome recorded for `Cn1c(=O)c(Oc2ccc(F)cc2)cc2cnc(NC3CCOCC3)nc21` in the assay.
Result :: NO

----------
- Tested on: UO-31 renal
- testProtocol: NCI tumour cell line growth inhibition, 48 h
reportedProperty: GI50

Sample answers from the record:
Query :: So what does the record say about GI50 for CC(C(=O)O)c1cccc(Oc2ccccc2)c1 (centres undefined) ?
Result :: > 100 µM

Query :: So what does the record say about GI50 for `COC(=O)c1ccc(-c2c(C#N)[n+](=O)c3cc(Cl)c(Cl)cc3n2[O-])cc1` ?
Result :: 26.3 µM

Query :: So what does the record say about GI50 for CC(C)=CCc1cc(O)cc2c1OC(C=C(C)C)C1=C2C(=O)C2=C(C1=O)S(=O)(=O)CCN2 (centres undefined) ?
Result :: 6.23 µM

Query :: So what does the record say about GI50 for COc1cc(C2CC(c3cccc(Nc4ccncc4)c3)=NN2c2ccc(Cl)cc2)cc(OC)c1OC (centres undefined) ?
Result :: 1.15 µM

Query :: So what does the record say about GI50 for `Oc1ccc(Nc2c3ccccc3nc3occ(Cl)c23)cc1` ?
Result :: 5.61 µM

Now let's try a different one.
Query :: So what does the record say about GI50 for `CC1(C)N=C(N)N=C(N)N1c1ccc(CCCCc2ccc(Cl)c(S(=O)(=O)F)c2)c(Cl)c1` ?
Result :: 8.2 µM

----------
- System: SR leukemia
- testProtocol: NCI tumour cell line growth inhibition, 48 h
reportedProperty: TGI

Query :: So what does the record say about TGI for `O=C1c2cccc3cccc(c23)C(=O)N1CCCCCN1CCN(CCCCCOc2ccc(-c3nc4ccc(N5CCOCC5)cc4[nH]3)cc2)CC1` ?
Result :: 3.2 µM

Query :: So what does the record say about TGI for `COc1cc(/C=C/C(=O)c2cccc(-n3cc(-c4ccc(Cl)cc4)[nH]c3=O)c2)ccc1O` ?
Result :: > 100 µM

Query :: So what does the record say about TGI for `O=C(CSc1c2ccccc2nc2ccccc12)Nc1ccccc1-c1ccccc1NC(=O)CSc1c2ccccc2nc2ccccc12` ?
Result :: > 31.6 µM

Query :: So what does the record say about TGI for `CN(C)CCC(=O)C(=Cc1ccc(O)cc1)C(=O)CCN(C)C` ?
Result :: > 100 µM

Query :: So what does the record say about TGI for FC(F)(F)c1ccc2c(c1)nc(-c1ccc(Cl)cc1)n2CC1CCCN2CCCCC12 (centres undefined) ?
Result :: 33.8 µM

Query :: So what does the record say about TGI for `CCOC(=O)/C=C(\C(=O)OCC)n1ccc(=O)n(Cc2cn(CCCCOC(C)=O)nn2)c1=O` ?
Result :: > 36 µM

Next:
Query :: So what does the record say about TGI for `CCOC(=O)c1nc2cc(F)c(N3CCOCC3)cc2[nH]c1=O` ?
Result :: > 100 µM

Query :: So what does the record say about TGI for CC(C)OC(=O)[C@H](C)NP(=O)(OC[C@H]1O[C@@H](n2ccc(=O)[nH]c2=O)[C@](C)(F)[C@@H]1O)Oc1ccccc1 (some centres undefined) ?
Result :: > 100 µM

Query :: So what does the record say about TGI for `CCN(CC)CCSc1c2ccccc2nc2c(OC)ccc(OC)c12` ?
Result :: 10.7 µM

----------
- System: OVCAR-4 ovarian
- testProtocol: NCI tumour cell line growth inhibition, 48 h; in the data active means GI50 below about 0.43 µM; inactive means the rest
Log the outcome using a class from Yes = active, No = inactive

Query :: Name the outcome recorded for `CCOC(=O)/C=C/c1ccc(C#Cc2ccccc2)cc1` in the assay.
Result :: No

Next:
Query :: Name the outcome recorded for COc1cccc2c1C(=O)c1c(O)c3c(c(O)c1C2=O)C[C@@](O)(/C(C)=N/NC(=O)c1ccc(Cl)cc1)C[C@@H]3OC1CC(N)C(O)C(C)O1 (stereo partly drawn) in the assay.
Result :: Yes

Query :: Name the outcome recorded for `NCCCn1c2c(c3ccc([N+](=O)[O-])cc3c1=O)C(=O)c1ccccc1-2` in the assay.
Result :: Yes

Query :: Name the outcome recorded for `CN(C)C(=S)Sc1ccc([N+](=O)[O-])cc1[N+](=O)[O-]` in the assay.
Result :: No

Query :: Name the outcome recorded for `C#Cc1nc(Nc2cc(C)[nH]n2)c2ccccc2n1` in the assay.
Result :: Yes
